- System: Jurkat
- Experiment summary: Selectivity index, ratio of IC50 for HUVEC to IC50 for human Jurkat cells
Ratio IC50 less than 5 is yes; Ratio IC50 greater than or equal to 5 is no.

Does the reported Ratio IC50 of the following compound sit strictly below 5? c1ccc(NC2=NCc3c([nH]c4ccccc34)S2)cc1
no

Likewise for FC(F)(F)c1ccc(NC2=NCc3c([nH]c4ccccc34)S2)cc1 ?
no

// same read-out, input: COc1cc([C@@H]2c3cc4c(cc3[C@@H](O[C@@H]3O[C@@H]5CO[C@@H](C)O[C@H]5[C@H](O)[C@H]3O)[C@H]3COC(=O)[C@H]23)OCO4)cc(OC)c1O [ETOPOSIDE]
yes

Please give the result for O=[N+]([O-])c1ccc(NC2=NCc3c([nH]c4ccccc34)S2)cc1 too.
no

Let us now turn to FC(F)(F)c1cc(NC2=NCc3c([nH]c4ccccc34)S2)cc(C(F)(F)F)c1
no

Consider next the compound CSC1=NCc2c([nH]c3ccccc23)S1 in the same way.
yes

Now the compound Brc1ccc(NC2=NCc3c([nH]c4ccccc34)S2)cc1
no

Now consider COc1ccc(NC2=NCc3c([nH]c4ccccc34)S2)cc1 .
no

Proceed to Cc1ccc(NC2=NCc3c([nH]c4ccccc34)S2)cc1
no

Note, next up: Clc1ccc(NC2=NCc3c([nH]c4ccccc34)S2)cc1
yes

Input Fc1ccc(NC2=NCc3c([nH]c4ccccc34)S2)cc1
no

* * *

- Tested on: HeLa
- Experiment summary: Antiproliferative activity against human HeLa cells assessed as cell viability after 72 hrs by MTT assay
- Assay type: functional, cell-based
Simple rule here: IC50 less than 30 µM is 1, otherwise -1.

Consider the compound c1ccc2c3c([nH]c2c1)SC(N1CCCCC1)=NC3 . Is its IC50 strictly less than 30 µM?
-1

What about COc1ccc(NC2=NC[C@]3(S2)c2ccccc2N(C(=O)OC(C)(C)C)[C@@H]3OC)cc1 (racemic) ?
1

Okay, and CO[C@H]1N(C(=O)OC(C)(C)C)c2ccccc2[C@@]12CN=C(N1CCCCC1)S2 (racemic) ?
-1

Param item: Cc1ccc(NC2=NCc3c([nH]c4ccccc34)S2)cc1
1

Check CO[C@H]1N(C(=O)OC(C)(C)C)c2ccccc2[C@@]12CN=C(Nc1ccccc1)S2 (racemic) too.
-1

Now try FC(F)(F)c1cc(NC2=NCc3c([nH]c4ccccc34)S2)cc(C(F)(F)F)c1 .
-1

FC(F)(F)c1ccc(NC2=NCc3c([nH]c4ccccc34)S2)cc1 ?
-1

Same again, this time with CO[C@H]1N(C(=O)OC(C)(C)C)c2ccccc2[C@@]12CN=C(Nc1ccc(C(F)(F)F)cc1)S2 (racemic)
-1

What about this compound? COc1ccc(NC2=NCc3c([nH]c4ccccc34)S2)cc1
1

For CO[C@@H]1N(C(=O)OC(C)(C)C)c2ccccc2[C@@]12CN=C(Nc1ccccc1)S2 (racemic) then?
1

Queued: COn1cc(CNC(=S)SC)c2ccccc21
-1

Same question, CSC1=NC[C@]2(S1)c1ccccc1N(C(=O)OC(C)(C)C)[C@H]2O (racemic) this time
-1

Same for CO[C@H]1N(C(=O)OC(C)(C)C)c2ccccc2[C@@]12CN=C(N1CCOCC1)S2 (racemic)
-1

Lookup CO[C@H]1N(C(=O)OC(C)(C)C)c2ccccc2[C@@]12CN=C(Nc1ccc(C)cc1)S2 (racemic)
1

# iterate: CSC1=NCc2c([nH]c3ccccc23)S1
-1

Try CC(C)(C)OC(=O)n1cc(CNC(=S)NC2CCCCC2)c2ccccc21 next.
1

Then what about the compound CO[C@H]1N(C(=O)OC(C)(C)C)c2ccccc2[C@@]12CN=C(N(C)c1ccccc1)S2 (racemic) ?
1

Item: CC(C)(C)OC(=O)n1cc(CNC(=S)Nc2ccc(F)cc2)c2ccccc21
1
